Value source: the supplement of paper PMC4466140

System Tested: ScLsb3
Assay Overview: SPOT peptide array binding signal intensity (averaged, normalized) (arbitrary units (background-subtracted, floor 0; scale differs between SH3 domains)); higher = stronger binding of the SH3 domain to the peptide
Measurement Name: SPOT peptide array binding signal intensity

VFQFQMPTTPISTKM    282
GKLKHIPRRPYEIER    122
VQKRKLPLPGSIASA    525
